Subject of test: T1, Extracellular domain of human ROR1 protein (ROR1-ECD) (human, UniProt Q01973 30-403)
T1 construct: Expressed in HEK293T cells; also called human ROR1-ECD; purified human ROR1 protein extracellular segment
Protocol notes: ELISA, plate-coated ROR1-ECD

Binder	binding result
Hu005-40 (antibody, V domains shown, Humanized) VH: EVQLVESGGGLVKPGGSLRLSCAASGFTFNSYAMSWVRQTPEKGLEWVATISDAGSYTYYPDNEKGRFTISRDNAKNNLYLQMNSLRAEDTAIYYCVRGGYYYNLYAMDYWGQGTLVTVSS VL: DIVLTQSPDSLAVSLGERATINCKASQSVSFPGTSLMHWYQQKPGQQPKLLIYRASNLEAGVPDRFSGSGSRTDFTLTISSLQAEDVAVYYCQQSREYPWTFGGGTKVEIK	binds
Hu005-46 (antibody, V domains shown, Humanized) VH: EVQLVESGGGLVKPGGSLRLSCAASGFTFNSYAMSWVRQTPGKRLEWVATISDAGSYTYYPDNEKGRFTISRDNAKNSLYLQMNSLRAEDTAIYYCVRGGYYYNLYAMDYWGQGTLVTVSS VL: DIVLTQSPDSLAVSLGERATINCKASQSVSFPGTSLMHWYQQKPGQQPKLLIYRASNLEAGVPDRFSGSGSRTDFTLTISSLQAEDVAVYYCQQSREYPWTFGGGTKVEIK	binds
Hu001-03 (antibody, V domains shown, Humanized; also called Hu001-3) VH: QVQLVQSGAEVKKPGASVKVSCKASGYTFTDYNLHWVRQAPGQGLEWMGYINPNHDATSYNQKFQGRVTMTRDTSTSTVYMELSSLRSEDTAVYYCARRVRTGTGLDDWGQGTTVTVSS VL: DVVMTQSPLSLPVTLGQPASISCRSSHNIVHTNANTYLEWYQQRPGQSPKLLIYKVSNRFSGVPDRFSGSGSGTDFTLKISRVEAEDVGVYYCFQGSRFPYTFGGGTKVEIK	binds

Reference source for all entries: patent EP4585616A1
